system: SF-539 CNS; experiment: NCI-60 one-dose screen, 48 h; settings: 10 µM unless noted
About 83,000 compounds went through this panel and 20% of them were active in at least one assay; those are over-represented in the sample as a whole. Active and inactive are the calls of the source. Rule for the calls: active = growth percent below 10; inactive = the rest.
Give your call using only these classes: active, inactive

# example entries with known answers
COc1ccc(-n2c(-c3ccccc3)c(-c3ccccc3)c3c(SCC(=O)N/N=C/c4ccc(Cl)cc4)ncnc32)cc1 : inactive
Cc1ccc(S(=O)(=O)C2=C3C(=C(c4ccccc4)c4ccccc43)CN(S(=O)(=O)c3ccc(C)cc3)C2)cc1 : inactive
CCCCOc1ccc(/C=C2/SC(N3CCCC3)=NC2=O)cc1 : inactive

Task: Recorded call for COc1ccc2c(c1)C(c1cc(OC)c3c(c1)OCO3)C1=C(COC1=O)N2 (centres undefined) ?
Result: active

Task: Recorded call for COc1ccc(CCNC2=CC(=O)CCC2)cc1OC ?
Result: inactive

Task: Recorded call for Oc1ccc2cc(Br)ccc2c1-c1c(O)ccc2cc(Br)ccc12 ?
Result: inactive

Task: Recorded call for Clc1cccc(-c2cc(-c3ccc4c(c3)OCCO4)[nH]n2)c1 ?
Result: inactive

Task: Recorded call for CC(=O)Nc1ccc(/C=C/C(=O)c2ccccc2)cc1 ?
Result: inactive

* * *

system: KM12 colon; assay: NCI-60 one-dose screen, 48 h (100 = growth as untreated, 0 = no growth, -100 = all killed); conditions: 10 µM unless noted
This is part of a sample that, as a whole, favours compounds with a hit. Of some 83,000 tested, about 20% had one in any assay.
Entries annotated with measured growth
Answer format: numeric, % implied, no suffix.

// below: answered molecules
Cn1c(=O)c2[nH]c(C3CC=CCC3)nc2n(C)c1=O (centres undefined) : 108
COc1ccc(Nc2ncccc2C(=O)NCc2cn(Cc3cccc(Oc4ccccc4)c3)nn2)c(OC)c1 : 17.9
O=C1/C(=C/c2ccc([N+](=O)[O-])cc2)CN(C(=O)CCN2CCC(=NO)CC2)C/C1=C\c1ccc([N+](=O)[O-])cc1 : -55.3

Task: For N#Cc1c(-c2ccccc2)nc(SCC(=O)N2CCN(c3ccccc3)CC2)[nH]c1=O , what is its reported growth?
Result: 106

Task: For c1ccc(-c2nc(N3CCNCC3)c3nc(-c4ccccc4)oc3n2)cc1 , what is its reported growth?
Result: -86.1

Task: For S=c1[nH]nc(-c2cc3ccc2CCc2ccc(cc2)CC3)n1-c1ccccc1 , what is its reported growth?
Result: 98.2

Task: For CC(C)C1=CC2=C(C=O)C[C@@H]3[C@](C)(CCC[C@@]3(C)C(=O)OCC#CCN3CCCC3)[C@H]2CC1 , what is its reported growth?
Result: 75.1

Task: For CC1=C(C#N)C(=O)NC(C)C1 (centres undefined) , what is its reported growth?
Result: 107

Task: For O=Nc1c(-c2cccc([N+](=O)[O-])c2)nc2ncccn12 , what is its reported growth?
Result: 89.3

* * *

tested on: HS 578T breast; test: NCI-60 one-dose screen, 48 h (100 = growth as untreated, 0 = no growth, -100 = all killed); conditions: 10 µM unless noted
The panel holds about 83,000 compounds, 20% with a hit somewhere; the sample as a whole holds those more often.
measuredProperty: growth (%)
Answer format: numeric, % implied, no suffix.

// below: answered compounds
COc1ccc(/C=C2\Oc3cc(OCCCN4CCCC4)ccc3C2=O)c(OC)c1 : 94.5
COc1ccc(N=Cc2c(O)ccc3c2oc2cc(Cl)c(O)c(Cl)c23)cc1 : 93.5
O=C(/C=C\c1cccc([N+](=O)[O-])c1)/C=C/c1cccc([N+](=O)[O-])c1 : 90.6
O=Nc1c(-c2cccc([N+](=O)[O-])c2)nc2ncccn12 : 107

Task: For CC(C)C(C(=O)NCCN1CCOCC1)N1C(=O)/C(=C/c2ccc(Br)cc2)SC1=S (stereo not drawn) , what is its reported growth?
Result: 95.1

Task: For O=S(=O)(NCCCNc1nccc(-n2ccc3cccnc32)n1)c1cccc(C(F)(F)F)c1 , what is its reported growth?
Result: 100

Values were extracted from PubChem BioAssay (NCI).
